Attribution: patent US20250250357A1

- Assay System: T1, human MSLN protein endogenously expressed on OVCAR3 tumor cells (human, UniProt Q13421 296-598)
- T1 construct: whole, on cells; Endogenous target on OVCAR3 cells; kept apart from the recombinant full-length construct; also called mesothelin
- T1 sequence (Q13421 other isoform, or with tags, fused parts or gaps): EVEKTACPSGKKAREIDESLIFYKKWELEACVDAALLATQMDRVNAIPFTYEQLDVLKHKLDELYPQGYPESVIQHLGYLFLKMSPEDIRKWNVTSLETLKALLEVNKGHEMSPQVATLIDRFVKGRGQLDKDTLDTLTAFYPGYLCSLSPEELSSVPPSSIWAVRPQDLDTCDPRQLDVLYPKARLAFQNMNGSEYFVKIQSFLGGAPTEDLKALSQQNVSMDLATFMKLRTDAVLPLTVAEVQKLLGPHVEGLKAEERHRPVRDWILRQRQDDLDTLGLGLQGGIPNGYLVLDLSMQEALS
- Assay Details: FACS on OVCAR3 cells;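 note: flow cytometry binding of test antibodies to cells, 2 h incubation on ice, readout as cell mean fluorescence intensity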
Readout Name: Maximum mean fluorescence intensity
Respond with the number and no other words.

// worked examples, Maximum mean fluorescence intensity included
{"Binder": "S009-F7.66.12 (antibody, human IgG1, kappa, V domains shown, human-murine chimeric antibody, human IgG1/kappa constant regions) VH: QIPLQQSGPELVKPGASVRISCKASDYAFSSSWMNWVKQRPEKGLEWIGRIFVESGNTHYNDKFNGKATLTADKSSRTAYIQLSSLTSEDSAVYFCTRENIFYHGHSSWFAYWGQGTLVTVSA VL: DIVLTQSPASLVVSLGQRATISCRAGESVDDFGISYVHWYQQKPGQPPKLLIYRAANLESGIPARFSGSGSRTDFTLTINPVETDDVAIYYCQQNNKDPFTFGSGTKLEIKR", "Result": 21900}
{"Binder": "S009-F7.26.15 (antibody, human IgG1, kappa, V domains shown, human-murine chimeric antibody, human IgG1/kappa constant regions) VH: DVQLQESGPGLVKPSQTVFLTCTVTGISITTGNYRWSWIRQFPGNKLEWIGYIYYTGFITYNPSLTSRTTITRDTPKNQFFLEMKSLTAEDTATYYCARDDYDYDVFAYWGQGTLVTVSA VL: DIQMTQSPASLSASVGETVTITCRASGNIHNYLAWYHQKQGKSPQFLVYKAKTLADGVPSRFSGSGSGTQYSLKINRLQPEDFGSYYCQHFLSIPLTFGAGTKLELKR", "Result": 16200}
{"Binder": "S009-F7.25.19 (antibody, human IgG1, kappa, V domains shown, human-murine chimeric antibody, human IgG1/kappa constant regions) VH: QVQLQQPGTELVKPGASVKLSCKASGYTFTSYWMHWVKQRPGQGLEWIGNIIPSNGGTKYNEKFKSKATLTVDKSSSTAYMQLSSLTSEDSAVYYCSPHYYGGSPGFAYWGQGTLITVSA VL: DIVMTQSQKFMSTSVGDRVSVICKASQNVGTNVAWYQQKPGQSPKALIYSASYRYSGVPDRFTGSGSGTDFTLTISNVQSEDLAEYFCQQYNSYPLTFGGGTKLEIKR", "Result": 24200}

Read the next record carefully.
Asked: Need Maximum mean fluorescence intensity, item S009-F7.48.1 (antibody, human IgG1, kappa, V domains shown, human-murine chimeric antibody, human IgG1/kappa constant regions) VH: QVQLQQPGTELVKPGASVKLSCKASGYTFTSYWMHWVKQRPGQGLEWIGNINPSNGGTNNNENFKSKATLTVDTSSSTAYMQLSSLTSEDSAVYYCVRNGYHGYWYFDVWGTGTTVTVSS VL: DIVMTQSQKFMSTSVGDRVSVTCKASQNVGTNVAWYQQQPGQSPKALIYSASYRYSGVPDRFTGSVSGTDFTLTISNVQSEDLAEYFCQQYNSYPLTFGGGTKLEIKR
Given back: 24000
